Each recorded value in this set is attributed to patent US20080319001A1.

I'd appreciate it if you could supply clearance values for the items below.
Assay: Pharmacokinetic evaluation in mice (plasma kinetics)
Assay type: in vivo, mouse
Conditions: mouse, female MF1 mice
Protocol: The test article is identified as BSG17 and has been studied in comparison to BSG01 (BRACO-19). The vials containing bulk test article were stored at room temperature (15-30° C.). The test compound was reconstituted in 0.9% physiological saline B.P. to the required final concentrations. To ensure the stability of the test formulations, prepared formulations were administered within two hours of preparation. […] Samples were analysed using HPLC or GC-MS/MS methodology. […]
Answers are plain numbers, in mL/min.

compound: O=C(CCN1CCCC1)Nc1ccc2c(NCc3ccc(F)c(F)c3)c3ccc(NC(=O)CCN4CCCC4)cc3nc2c1 [BSG17]
reported.value: 0.667

// switching to the query compound
Looking for the measured clearance of CN(C)c1ccc(Nc2c3ccc(NC(=O)CCN4CCCC4)cc3nc3cc(NC(=O)CCN4CCCC4)ccc23)cc1 [BSG01] , can you help? 1
